B1: Twister Ribozyme (parent)
chain: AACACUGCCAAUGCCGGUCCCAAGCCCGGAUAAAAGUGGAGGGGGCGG

Variants of: B1
Assay: self-cleavage, relative activity (ratio to wild type); higher = more cleavage; co-transcriptional
Mark MET for reported self-cleavage of 0.2 or greater; mark NOT MET for anything smaller.

>  <variant-name>
G7C G38U

>  <assigned-label>
NOT MET

$$$$
>  <variant-name>
A11U A33U

>  <assigned-label>
MET

$$$$
>  <variant-name>
U6C C21U

>  <assigned-label>
NOT MET

$$$$
>  <variant-name>
G29A A30C

>  <assigned-label>
MET

$$$$
>  <variant-name>
A2U U37G

>  <assigned-label>
MET

$$$$
>  <variant-name>
G16U A23U

>  <assigned-label>
MET

$$$$
>  <variant-name>
U12A U37G

>  <assigned-label>
MET

$$$$
>  <variant-name>
C3U U18C

>  <assigned-label>
MET

$$$$
>  <variant-name>
C25A A34U

>  <assigned-label>
NOT MET

$$$$
>  <variant-name>
G7A G28U

>  <assigned-label>
MET

$$$$
>  <variant-name>
G38U G45C

>  <assigned-label>
MET

$$$$
